Source listed as the supplement of paper PMC10567573.

B1: TNXB (parent)
chain: FSEIRETSAKVNWMPPPSRADSFK

Variants of: B1
EXPERIMENT_NOTES: protein stability index of a GFP-peptide fusion (GPS, HEK-293T) (PSI 1-6); higher = more stable;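 further: lentivirally expressed fusions sorted by FACS into six bins by GFP to DsRed ratio, PSI derived from sequencing read proportions per bin multiplied by bin number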
TEST_SETTINGS: c terminus: a fixed tail appended
Would you mind labelling by protein stability index? At or over 3 is Satisfied, under is Not satisfied.

variant_identifier=I4L category_label=Satisfied
variant_identifier=S18M category_label="Not satisfied"
variant_identifier=F1H category_label=Satisfied

Switching to the query record.
Q. Reported protein stability index reaches at least 3 for `A20C` ?
A. Satisfied
